The reported measurements were obtained from ChEMBL document CHEMBL1133013.

Endpoint: IC50. System: Matrilysin (Homo sapiens, UniProt P09237). Items follow.
Sequence (P09237 whole entry): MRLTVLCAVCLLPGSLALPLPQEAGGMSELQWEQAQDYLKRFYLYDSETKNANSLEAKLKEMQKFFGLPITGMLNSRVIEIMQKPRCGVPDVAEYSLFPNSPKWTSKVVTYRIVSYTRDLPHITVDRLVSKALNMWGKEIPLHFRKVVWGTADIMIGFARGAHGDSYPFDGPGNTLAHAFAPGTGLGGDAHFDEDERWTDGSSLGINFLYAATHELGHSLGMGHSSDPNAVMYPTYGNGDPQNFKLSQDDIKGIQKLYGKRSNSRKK
Only the number, expressed in µM, is required.

Provide one value: measured IC50 of CC(C)[C@H](NS(=O)(=O)c1ccc(-c2ccc(Br)cc2F)cc1)C(=O)O
2.1

Provide one value: measured IC50 of C[C@H](NS(=O)(=O)c1ccc(-c2ccc(Br)cc2)cc1)C(=O)O
11

Provide one value: measured IC50 of CC(C)[C@@H](NS(=O)(=O)c1ccc(Oc2ccccc2)cc1)C(=O)NO
0.18

Provide one value: measured IC50 of CC(C)[C@H](NS(=O)(=O)c1ccc(-c2ccc(C(F)(F)F)cc2)cc1)C(=O)O
7.9

Provide one value: measured IC50 of Cc1ccc(-c2ccc(S(=O)(=O)N[C@H](C(=O)O)C(C)C)cc2)cc1
4.5

Provide one value: measured IC50 of CC(C)[C@H](NS(=O)(=O)c1ccc(-c2ccc(N)cc2)cc1)C(=O)O
31

---

Molecular target: Matrix metalloproteinase-9 (Homo sapiens, UniProt P14780)
Sequence (P14780 whole entry): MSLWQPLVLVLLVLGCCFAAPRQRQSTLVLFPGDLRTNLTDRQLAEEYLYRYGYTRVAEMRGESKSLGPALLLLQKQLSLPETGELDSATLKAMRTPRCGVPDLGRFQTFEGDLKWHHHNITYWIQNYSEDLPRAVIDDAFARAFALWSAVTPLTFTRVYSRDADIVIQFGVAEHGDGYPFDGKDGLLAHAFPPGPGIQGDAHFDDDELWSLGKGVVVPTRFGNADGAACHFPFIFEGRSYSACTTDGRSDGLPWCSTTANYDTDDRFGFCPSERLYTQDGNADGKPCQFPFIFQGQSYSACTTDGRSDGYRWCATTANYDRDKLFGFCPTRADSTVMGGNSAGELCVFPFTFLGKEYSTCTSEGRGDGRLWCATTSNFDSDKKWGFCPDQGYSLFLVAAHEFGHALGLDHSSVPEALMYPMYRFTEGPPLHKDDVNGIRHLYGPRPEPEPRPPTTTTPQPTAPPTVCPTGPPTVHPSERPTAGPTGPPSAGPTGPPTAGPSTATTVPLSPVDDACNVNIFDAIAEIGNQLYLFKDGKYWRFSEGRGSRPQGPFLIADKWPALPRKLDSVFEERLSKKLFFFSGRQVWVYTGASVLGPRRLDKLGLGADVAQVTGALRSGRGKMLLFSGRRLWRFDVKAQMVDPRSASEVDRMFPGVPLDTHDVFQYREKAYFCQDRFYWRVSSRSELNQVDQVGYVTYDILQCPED
For each of the molecules below, state its log10 IC50.
Kindly note that the scale is log10 and the underlying IC50 is in µM.

Print Matrix metalloproteinase-9 (Homo sapiens, UniProt P14780) log10 IC50 for O=C(O)C(CCS(=O)(=O)Cc1ccccc1)NS(=O)(=O)c1ccc(-c2ccc(Br)cc2)cc1 (stereo not given) .
0.36

Print Matrix metalloproteinase-9 (Homo sapiens, UniProt P14780) log10 IC50 for CC(C)[C@H](NS(=O)(=O)c1ccc(-c2ccc(C(F)(F)F)cc2)cc1)C(=O)O .
1.30

Print Matrix metalloproteinase-9 (Homo sapiens, UniProt P14780) log10 IC50 for CC(C)[C@H](NS(=O)(=O)c1ccc(-c2ccccc2)cc1)C(=O)O .
1.41

Print Matrix metalloproteinase-9 (Homo sapiens, UniProt P14780) log10 IC50 for Cc1ccc(-c2ccc(S(=O)(=O)N[C@H](C(=O)O)C(C)C)cc2)cc1 .
0.59

Print Matrix metalloproteinase-9 (Homo sapiens, UniProt P14780) log10 IC50 for CC(C)[C@@H](NS(=O)(=O)c1ccc(-c2ccc(Br)cc2)cc1)C(=O)O .
0.18

---

Target: UniProtKB P08253
Sequence (P08253 whole entry): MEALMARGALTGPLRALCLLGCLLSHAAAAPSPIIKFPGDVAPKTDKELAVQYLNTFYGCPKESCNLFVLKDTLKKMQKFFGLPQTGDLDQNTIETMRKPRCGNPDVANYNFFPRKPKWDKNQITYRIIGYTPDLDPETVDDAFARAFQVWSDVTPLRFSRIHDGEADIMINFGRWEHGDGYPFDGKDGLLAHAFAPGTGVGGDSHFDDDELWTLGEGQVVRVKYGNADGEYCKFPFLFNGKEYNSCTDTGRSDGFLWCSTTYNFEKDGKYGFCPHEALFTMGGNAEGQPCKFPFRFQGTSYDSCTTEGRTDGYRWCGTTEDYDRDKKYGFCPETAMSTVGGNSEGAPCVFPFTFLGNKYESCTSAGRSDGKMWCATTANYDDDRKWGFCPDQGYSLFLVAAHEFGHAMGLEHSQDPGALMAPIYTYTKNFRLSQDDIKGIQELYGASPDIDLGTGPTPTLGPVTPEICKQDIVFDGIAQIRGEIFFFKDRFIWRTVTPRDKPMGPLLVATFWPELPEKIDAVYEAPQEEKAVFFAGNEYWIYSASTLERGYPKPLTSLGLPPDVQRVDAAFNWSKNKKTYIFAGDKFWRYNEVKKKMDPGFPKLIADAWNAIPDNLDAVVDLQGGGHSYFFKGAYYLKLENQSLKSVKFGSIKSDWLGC
For each of the compounds below, state its IC50.
Only the number, expressed in nM, is required.

Provide one value: measured IC50 of CC(C)[C@@H](NS(=O)(=O)c1ccc(-c2ccc(Br)cc2)cc1)C(=O)NO
1

Provide one value: measured IC50 of Cc1ccc(-c2ccc(S(=O)(=O)N[C@H](C(=O)O)C(C)C)cc2)cc1
2

Provide one value: measured IC50 of CC(C)C[C@H](NS(=O)(=O)c1ccc(-c2ccc(Br)cc2)cc1)C(=O)O
9

Provide one value: measured IC50 of COc1ccc(-c2ccc(S(=O)(=O)N[C@H](C(=O)O)C(C)C)cc2)cc1
3

Provide one value: measured IC50 of O=C(NCCCC[C@H](NS(=O)(=O)c1ccc(-c2ccc(Br)cc2)cc1)C(=O)O)OCc1ccccc1
31

Provide one value: measured IC50 of O=C(CCc1ccccc1)NCCC[C@H](NS(=O)(=O)c1ccc(-c2ccc(Br)cc2)cc1)C(=O)O
8

Provide one value: measured IC50 of CC(C)[C@H](NS(=O)(=O)c1ccc(-c2ccc(Br)cc2F)cc1)C(=O)O
5

Provide one value: measured IC50 of CC(C)[C@H](NS(=O)(=O)c1ccc(-c2ccc(Cl)cc2)cc1)C(=O)O
11

---

Experiment: Time to maximal concentration (tmax) in rats following a single 5 mg/kg oral cassette gavage dose
Format: ADME, organism-based
Set-up: dose 5 mg/kg, route oral
Conditions: rat, in vivo
The threshold is inclusive: Tmax of exactly 2 h counts as TRUE; values below receive FALSE.

Is it the case that CC(C)[C@H](NS(=O)(=O)c1ccc(-c2ccc(C(F)(F)F)cc2)cc1)C(=O)O has Tmax reaching or exceeding 2 h?
TRUE

Is it the case that CC(C)[C@@H](NS(=O)(=O)c1ccc(-c2ccc(C#N)cc2)cc1)C(=O)O has Tmax reaching or exceeding 2 h?
FALSE

Is it the case that O=C(O)[C@H](Cc1ccccc1)NS(=O)(=O)c1ccc(-c2ccc(Br)cc2)cc1 has Tmax reaching or exceeding 2 h?
TRUE

Is it the case that COc1ccc(-c2ccc(S(=O)(=O)N[C@H](C(=O)O)C(C)C)cc2)cc1 has Tmax reaching or exceeding 2 h?
FALSE

Is it the case that CC(C)[C@H](NS(=O)(=O)c1ccc(-c2ccc(C#N)cc2)cc1)C(=O)O has Tmax reaching or exceeding 2 h?
TRUE

Is it the case that CC(C)[C@@H](NS(=O)(=O)c1ccc(Oc2ccccc2)cc1)C(=O)NO has Tmax reaching or exceeding 2 h?
FALSE

Is it the case that Cc1ccc(-c2ccc(S(=O)(=O)N[C@H](C(=O)O)C(C)C)cc2)cc1 has Tmax reaching or exceeding 2 h?
FALSE

Is it the case that CC(C)[C@H](NS(=O)(=O)c1ccc(-c2ccc([N+](=O)[O-])cc2)cc1)C(=O)O has Tmax reaching or exceeding 2 h?
FALSE

Is it the case that C[C@H](NS(=O)(=O)c1ccc(-c2ccc(Br)cc2)cc1)C(=O)O has Tmax reaching or exceeding 2 h?
TRUE

---

Biological target: Collagenase 3 (Homo sapiens)
Rule: measured IC50 below 40 nM gets T; anything equal to or greater than 40 nM gets F.

Consider CC(C)[C@H](NS(=O)(=O)c1ccc(-c2cccc(Br)c2)cc1)C(=O)O . Does its IC50 lie strictly below 40 nM?
F

Consider CC(C)[C@H](NS(=O)(=O)c1ccc(-c2ccc(C#N)cc2)cc1)C(=O)O . Does its IC50 lie strictly below 40 nM?
T

Consider O=C(NCCCC[C@H](NS(=O)(=O)c1ccc(-c2ccc(Br)cc2)cc1)C(=O)O)OCc1ccccc1 . Does its IC50 lie strictly below 40 nM?
T

Consider C[C@H](NS(=O)(=O)c1ccc(-c2ccc(Br)cc2)cc1)C(=O)O . Does its IC50 lie strictly below 40 nM?
T

Consider CC(C)[C@H](NS(=O)(=O)c1ccc(-c2ccc(F)cc2)cc1)C(=O)O . Does its IC50 lie strictly below 40 nM?
F

Consider CC(C)[C@H](NS(=O)(=O)c1ccc(-c2ccc(Cl)cc2)cc1)C(=O)O . Does its IC50 lie strictly below 40 nM?
F

Consider CC(C)[C@H](NS(=O)(=O)c1ccc(-c2ccc(C(F)(F)F)cc2)cc1)C(=O)O . Does its IC50 lie strictly below 40 nM?
T

Consider CC(C)[C@H](NS(=O)(=O)c1ccc(-c2ccccc2)cc1)C(=O)O . Does its IC50 lie strictly below 40 nM?
F

Consider Cc1ccc(-c2ccc(S(=O)(=O)N[C@H](C(=O)O)C(C)C)cc2)cc1 . Does its IC50 lie strictly below 40 nM?
T

Consider CC(C)[C@H](NS(=O)(=O)c1ccc(-c2ccc([N+](=O)[O-])cc2)cc1)C(=O)O . Does its IC50 lie strictly below 40 nM?
F

Consider CC(C)[C@@H](NS(=O)(=O)c1ccc(-c2ccc(C#N)cc2)cc1)C(=O)O . Does its IC50 lie strictly below 40 nM?
F

Consider CC(C)[C@@H](NS(=O)(=O)c1ccc(Oc2ccccc2)cc1)C(=O)NO . Does its IC50 lie strictly below 40 nM?
T

Consider CC(C)[C@H](NS(=O)(=O)c1ccc(-c2ccc(C=O)cc2)cc1)C(=O)O . Does its IC50 lie strictly below 40 nM?
T

Consider CC(C)[C@H](NS(=O)(=O)c1ccc(-c2ccc(N)cc2)cc1)C(=O)O . Does its IC50 lie strictly below 40 nM?
F

Consider O=C(O)[C@H](Cc1ccccc1)NS(=O)(=O)c1ccc(-c2ccc(Br)cc2)cc1 . Does its IC50 lie strictly below 40 nM?
T

Consider O=C(O)C(CCS(=O)(=O)Cc1ccccc1)NS(=O)(=O)c1ccc(-c2ccc(Br)cc2)cc1 (stereo not given) . Does its IC50 lie strictly below 40 nM?
T

Consider O=C(CCc1ccccc1)NCCC[C@H](NS(=O)(=O)c1ccc(-c2ccc(Br)cc2)cc1)C(=O)O . Does its IC50 lie strictly below 40 nM?
T

Consider CC(C)[C@H](NS(=O)(=O)c1ccc(-c2cccc(F)c2)cc1)C(=O)O . Does its IC50 lie strictly below 40 nM?
F

Consider COc1ccc(-c2ccc(S(=O)(=O)N[C@H](C(=O)O)C(C)C)cc2)cc1 . Does its IC50 lie strictly below 40 nM?
T

Consider CC(C)[C@H](NS(=O)(=O)c1ccc(-c2ccc(Br)cc2F)cc1)C(=O)O . Does its IC50 lie strictly below 40 nM?
T

---

Assay: Cmax in rat plasma after single 5 mg/kg oral cassette gavage dose
Assay type: ADME, organism-based
Design: dose 5 mg/kg, route oral
OBSERVABLE: Cmax (ng/mL)
Only the number, expressed in ng/mL, is required.

Provide one value: measured Cmax of CC(C)[C@@H](NS(=O)(=O)c1ccc(-c2ccc(Br)cc2)cc1)C(=O)NO
5930

Provide one value: measured Cmax of CC(C)[C@H](NS(=O)(=O)c1ccc(-c2ccc(Cl)cc2)cc1)C(=O)O
8860

Provide one value: measured Cmax of CC(C)[C@H](NS(=O)(=O)c1ccc(-c2ccc(C(F)(F)F)cc2)cc1)C(=O)O
18600

Provide one value: measured Cmax of O=C(O)C(CCS(=O)(=O)Cc1ccccc1)NS(=O)(=O)c1ccc(-c2ccc(Br)cc2)cc1 (stereo unspecified)
451

Provide one value: measured Cmax of O=C(O)CNS(=O)(=O)c1ccc(-c2ccc(Br)cc2)cc1
9960

Provide one value: measured Cmax of CC(C)[C@@H](NS(=O)(=O)c1ccc(-c2ccc(C#N)cc2)cc1)C(=O)O
12200

Provide one value: measured Cmax of CC(C)C[C@H](NS(=O)(=O)c1ccc(-c2ccc(Br)cc2)cc1)C(=O)O
30700

Provide one value: measured Cmax of CC(C)[C@@H](NS(=O)(=O)c1ccc(-c2ccc(C#N)cc2)cc1)C(=O)NO
180

Provide one value: measured Cmax of CC(C)[C@@H](NS(=O)(=O)c1ccc(Oc2ccccc2)cc1)C(=O)NO
310

Provide one value: measured Cmax of CC(C)[C@H](NS(=O)(=O)c1ccc(-c2ccc(Br)cc2)cc1)C(=O)O
42400

Provide one value: measured Cmax of C[C@H](NS(=O)(=O)c1ccc(-c2ccc(Br)cc2)cc1)C(=O)O
17200

Provide one value: measured Cmax of O=C(O)[C@H](Cc1ccccc1)NS(=O)(=O)c1ccc(-c2ccc(Br)cc2)cc1
10300

Provide one value: measured Cmax of CC(C)[C@H](NS(=O)(=O)c1ccc(-c2ccccc2)cc1)C(=O)O
5180

Provide one value: measured Cmax of COc1ccc(-c2ccc(S(=O)(=O)N[C@H](C(=O)O)C(C)C)cc2)cc1
4260

Provide one value: measured Cmax of CC(C)[C@H](NS(=O)(=O)c1ccc(-c2ccc(C#N)cc2)cc1)C(=O)O
17100

Provide one value: measured Cmax of CC(C)[C@H](NS(=O)(=O)c1ccc(-c2ccc([N+](=O)[O-])cc2)cc1)C(=O)O
23400
